System: Caco-2 cell monolayer
experimental.protocol: Caco-2 monolayer transport (bioavailability) study, AB and BA directions
Type: in vitro ADME, Homo sapiens
experimental.parameters: BA experiment, donor side, S1 (15 mg/mL GSE), 115 min
Marks after values point to notes of the source that are not given here.
measured.metric: Basolateral Side 115 min

Take a look at these entries with their results.
compound	Basolateral Side 115 min
COc1cc(-c2[o+]c3cc(O)cc(O)c3cc2O[C@@H]2O[C@H](CO)[C@@H](O)[C@H](O)[C@H]2O)cc(O)c1O [Pet3G, petunidin-3-O-glucoside]	3.65 ± 0.09 ^c,d mg/L
OC[C@H]1O[C@@H](Oc2cc3c(O)cc(O)cc3[o+]c2-c2cc(O)c(O)c(O)c2)[C@H](O)[C@@H](O)[C@@H]1O [D3G, delphinidin-3-O-glucoside]	2.4 ± 0.2 ^b,c mg/L
O=c1c(O[C@@H]2O[C@H](CO)[C@@H](O)[C@H](O)[C@H]2O)c(-c2ccc(O)c(O)c2)oc2cc(O)cc(O)c12 [Q3G, quercetin-3-glucoside]	0.18 ± 0.01 ^d mg/L
O=C(O)c1cc(O)c(O)c(O)c1	5.9 ± 0.3 ^d mg/L
COc1cc(-c2[o+]c3cc(O)cc(O)c3cc2O[C@@H]2O[C@H](CO)[C@@H](O)[C@H](O)[C@H]2O)cc(OC)c1O [M3G, malvidin-3-O-glucoside]	8.5 ± 0.6 ^d mg/L

Can you give me Basolateral Side 115 min for all of these, one by one?
1. O=C(/C=C/c1ccc(O)c(O)c1)O[C@@H](C(=O)O)[C@@H](O)C(=O)O
2. O=c1c(OC2O[C@H](CO)[C@H](O)[C@H](O)[C@H]2O)c(-c2ccc(O)cc2)oc2cc(O)cc(O)c12 (stereo partly drawn) [K3Gal, kaempferol-3-galactoside]
3. COc1cc(C(=O)O)cc(OC)c1O
4. O=c1c(O[C@@H]2O[C@H](CO)[C@@H](O)[C@H](O)[C@H]2O)c(-c2ccc(O)cc2)oc2cc(O)cc(O)c12 [K3G, kaempferol-3-glucoside]

[out]
0.70 ± 0.02 ^c,d mg/L
0.08 ± 0.01 ^d mg/L
0.53 ± 0.06 ^c,d mg/L
6.6 ± 0.1 ^d mg/L

Reference for the values: paper PMC12248599
